target_or_test_system: T1, ADAM17 (Homo sapiens, UniProt P78536)
T1 construct: purchased RnD Systems
T1 sequence (P78536 215-824): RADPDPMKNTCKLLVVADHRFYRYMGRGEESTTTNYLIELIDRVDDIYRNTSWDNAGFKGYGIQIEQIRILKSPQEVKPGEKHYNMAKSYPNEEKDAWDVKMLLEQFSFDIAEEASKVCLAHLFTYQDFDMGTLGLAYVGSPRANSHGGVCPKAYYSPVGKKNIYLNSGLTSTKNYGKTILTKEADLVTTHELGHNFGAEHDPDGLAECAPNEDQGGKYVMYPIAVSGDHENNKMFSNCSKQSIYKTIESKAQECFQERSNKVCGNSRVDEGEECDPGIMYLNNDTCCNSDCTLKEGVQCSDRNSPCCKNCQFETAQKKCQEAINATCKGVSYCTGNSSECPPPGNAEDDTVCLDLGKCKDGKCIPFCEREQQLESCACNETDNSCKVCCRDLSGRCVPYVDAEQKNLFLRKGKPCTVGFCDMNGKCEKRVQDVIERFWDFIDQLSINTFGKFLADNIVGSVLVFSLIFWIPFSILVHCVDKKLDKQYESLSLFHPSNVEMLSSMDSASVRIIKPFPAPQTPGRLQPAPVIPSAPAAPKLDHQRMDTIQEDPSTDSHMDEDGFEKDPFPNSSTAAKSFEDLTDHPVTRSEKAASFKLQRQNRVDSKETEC
experimental_protocol: SEPARATE assay: human peptidome library digest with ADAM17
Assay type: biochemical
assay_conditions: top 20 enriched peptides, human library (90-aa tiles); digest vs mock digest
metric_name: Adam17 Fold Change (fold)

{"columns": ["molecule", "reported"],
 "data": [
  ["YVAPLTAQPATYRAQPSVSLGAAYRAQPSASLGVGYRTQPMTAQAASYRAQPSVSLGAPYRGQLASPSSQSAAASSLGPYGGAQPSASAL (protein, listed as Homo sapiens) YVAPLTAQPATYRAQPSVSLGAAYRAQPSASLGVGYRTQPMTAQAASYRAQPSVSLGAPYRGQLASPSSQSAAASSLGPYGGAQPSASAL", 39.99],
  ["VLNSGARVWPSASALGLTAPPKDAEDRARPASGLRGARVLSEGREPRASLRVQVRPGLDVAAPGVCSLSCPSPPRSSAHPGPRGPLFPAL (protein, listed as Homo sapiens) VLNSGARVWPSASALGLTAPPKDAEDRARPASGLRGARVLSEGREPRASLRVQVRPGLDVAAPGVCSLSCPSPPRSSAHPGPRGPLFPAL", 44.03],
  ["IAAKAQLARQQSPSPIRHSPSPVRHVRAPTPSPVRSVSPAARISTSPIRSVRSPLLMRKTQASTVATGPEVPPPWKQEGYVASSSEAEMR (protein, listed as Homo sapiens) IAAKAQLARQQSPSPIRHSPSPVRHVRAPTPSPVRSVSPAARISTSPIRSVRSPLLMRKTQASTVATGPEVPPPWKQEGYVASSSEAEMR", 37.14],
  ["SPLIAPVMGTVAVSLSSPLLSSTATPPGVSQNLLANPMSNLVLPEAPRLRLAEPLRGGPTGPQSPACVVPTATTKVPLSTEPPQSTQDPE (protein, listed as Homo sapiens) SPLIAPVMGTVAVSLSSPLLSSTATPPGVSQNLLANPMSNLVLPEAPRLRLAEPLRGGPTGPQSPACVVPTATTKVPLSTEPPQSTQDPE", 51.48],
  ["… (protein, listed as Homo sapiens) STRPVLASIEPELPMQLVSQDDESGQKKLHGLQAILVHEASGTTAITATATGYQESHLSSARTKQPHDPLVPLSASIELILVEDVRVSPE", 34.57],
  ["ARQEKLAFQEDSRSTLSRRELDAAHTGTTGQDSDFPVTAASTVDFLKIKKSCEENVCRSLKDCEMEKCPDSCAHEMESVADHEPNKRILG (protein, listed as Homo sapiens) ARQEKLAFQEDSRSTLSRRELDAAHTGTTGQDSDFPVTAASTVDFLKIKKSCEENVCRSLKDCEMEKCPDSCAHEMESVADHEPNKRILG", 34.10]
]}
